Below, each of the compounds is paired with its reported GI50 value.
Test system: NCI-H226 lung
Assay: NCI tumour cell line growth inhibition, 48 h

Fill in reported GI50 for this entry: CCOC(=O)c1cc(-c2ccc(OC)c(OC)c2)[nH]c1N/N=C/c1c(Cl)cccc1Cl 1.81 µM

Fill in reported GI50 for this entry: O=S(=O)(Nc1ccc2ccccc2c1)c1ccc(-c2cnc(C3CC3)o2)cc1 3.99 µM

Fill in reported GI50 for this entry: CCOc1c(C#N)c2c(N)ncnc2n1C1OC(CO)C(O)C1O (stereo unspecified) 6.93 µM

Fill in reported GI50 for this entry: CCc1nc2cc(/C=C/C(=O)NO)ccc2c(=O)n1CCc1ccc(F)cc1 1.71 µM

Fill in reported GI50 for this entry: COc1ccc(/C=C2\CC(C)CC3C2=NN(c2ccccc2)C3c2ccc(OC)c(OC)c2)cc1OC (stereo unspecified) 3.09 µM

Fill in reported GI50 for this entry: N#Cc1c(N)nc(N2CCSCC2)c(C#N)c1-c1ccc(O)cc1 21.9 µM

====

Tested on: UO-31 renal
Experiment: NCI tumour cell line growth inhibition, 48 h
PARAMETER_MEASURED: TGI

Below are worked cases with known answers.
| COMPOUND | TGI |
| --- | --- |
| O=C(NNC(=S)Nc1ccccc1)c1ccccn1 | 16.9 µM |
| COCCOCCOCCOc1ccc(C(C#N)N(CCc2ccccc2)C(=O)c2cc(C(=O)N(CCc3ccccc3)C(C#N)c3ccc(OCCOCCOCCOC)cc3)cc(C(=O)N(CCc3ccccc3)C(C#N)c3ccc(OCCOCCOCCOC)cc3)c2)cc1 (centres undefined) | > 100 µM |
| COc1cc2c(c(OC(C)=O)c1OC(C)=O)-c1ccc(SC)c(=O)cc1C(NC(C)=O)CC2 (centres undefined) | > 100 µM |

API: the following record is the query input.
Fill in reported TGI for this entry: CC(=O)O/N=C(Cl)/C(Cl)=N/OC(C)=O > 100 µM

====

Tested on: U251 CNS
Test: NCI tumour cell line growth inhibition, 48 h
PARAMETER_MEASURED: TGI

Below are worked cases with known answers.
| COMPOUND | TGI |
| --- | --- |
| CC1CC(C)C2=NOS3=C2C1=NO3 (centres undefined) | > 100 µM |
| [O-][n+]1c(-c2ccccc2)c2nc3ccccc3nc2c2ccccc21 | > 100 µM |
| Nc1ccc2c(c1)Oc1c(F)c(F)cc3c(=O)c(C(=O)O)cn-2c13 | > 100 µM |
| C[C@]12CC[C@@H]3c4ccc(OCCN5CCCC5)cc4CC[C@H]3[C@@H]1CCC2=O | > 100 µM |
| COc1cc(/C=C\c2cc(/C=C\c3ccc(O)c(OC)c3)n(C(=O)CNc3ccc(Cl)cc3)n2)ccc1O | 11.8 µM |

Fill in reported TGI for this entry: O=S(=O)(Nc1ccc2ccccc2c1)c1ccc(-c2cnc(C3CC3)o2)cc1 15.7 µM

Fill in reported TGI for this entry: COc1cccc2cc(C(=O)Nc3ccccn3)c(=N)oc12 > 100 µM

Fill in reported TGI for this entry: O=C(O)CCC(NC(=O)c1ccc(CNc2nc3ccccc3nc2C(=O)O)cc1)C(=O)O (centres undefined) > 100 µM

Fill in reported TGI for this entry: CC(C)CCC(=O)[C@@H](C)[C@H]1[C@@H](OC2OCC(O)C(O)C2NS(C)(=O)=O)C[C@H]2[C@@H]3CC=C4C[C@@H](O)CC[C@]4(C)[C@H]3CC[C@]12C (some centres undefined) 7.8 µM

====

These compounds were tested on U251 CNS; GI50 is the recorded read-out.

Below are worked cases with known answers.
| COMPOUND | VAL |
| --- | --- |
| CCOC(=O)c1csc(NC(=O)COc2cccc(/C=C3\CSc4ccccc4C3=O)c2)n1 | 585 nM |
| O=c1c(-c2ccc(O)cc2)coc2cc(OC3OC(CO)C(O)C(O)C3O)cc(O)c12 (configuration not stated) | > 100000 nM |
| CCCCCCN(C)Cc1ccc(OCCOc2ccc(CN(C)CCCCCC)cc2)cc1 | 1080 nM |
| COC(=O)C1=C(O)[C@H](C(=O)OC)[C@]2(O)[C@@H](C(=O)OC)[C@H]1C[C@@H](c1ccc(OC(=O)/C=C/c3ccco3)cc1)[C@@H]2C(=O)OC | 10300 nM |

Under U251 CNS: report GI50 of N#Cc1c(N)nc(N2CCSCC2)c(C#N)c1-c1ccc(O)cc1 . 15000 nM

Under U251 CNS: report GI50 of CC(C)(C)NC/C(=C\c1ccccc1)C(=O)c1ccccc1 . 2300 nM

Under U251 CNS: report GI50 of Cc1cc(NNC(=O)c2ccccc2O)nc(Nc2nc3ccccc3o2)n1 . 628 nM

====

System: SK-MEL-28 melanoma
Experiment: NCI tumour cell line growth inhibition, 48 h
PARAMETER_MEASURED: TGI

Below are worked cases with known answers.
| MOLECULE | PARAMETER_MEASURED | VAL |
| --- | --- | --- |
| CC(C)(C)c1ccc(O)c(CN(Cc2cc(C(C)(C)C)ccc2O)C2CCCCC2)c1 | TGI | 27.2 µM |
| CCN(CC)COC(=S)S | TGI | > 100 µM |
| CCOC(=O)NC(Nc1ccc(Cl)cn1)(C(F)(F)F)C(F)(F)F | TGI | > 100 µM |
| CC1OC(O[C@H]2CC[C@]3(C=O)[C@H]4CC[C@]5(C)[C@H](C6=CC(=O)OC6)CC[C@]5(O)[C@@H]4C=C[C@]3(O)C2)CC(O)C1O (stereo partly specified) | TGI | 1.7 µM |
| CC(O)CN1c2ccccc2Sc2ccc(Cl)cc21 (stereo unspecified) | TGI | > 10 µM |

API: the following record is the query input.
Fill in reported TGI for this entry: O=C(O)CCC(NC(=O)c1ccc(CNc2nc3ccccc3nc2C(=O)O)cc1)C(=O)O (stereo unspecified) > 100 µM

====

Tested on: TK-10 renal
Experiment: NCI tumour cell line growth inhibition, 48 h
Below, each of the compounds is paired with its reported TGI value.

Fill in reported TGI for this entry: CC1=NN(C(=O)c2ccncc2)C(=O)C1N=Nc1ccc2ccccc2c1 (stereo not drawn) > 100 µM

Fill in reported TGI for this entry: CC(=N)N(C)O > 100 µM

====

Below, each of the compounds is paired with its reported TGI value.
Tested on: K-562 leukemia
Test: NCI tumour cell line growth inhibition, 48 h

| COMPOUND | TGI |
| --- | --- |
| CCN(CC)CCNc1ccc(C)c2sc3ccccc3c(=O)c12 | 6.08 µM |
| COc1cc(C23OCC(Cc4cc5c(cc42)OCO5)C3CO)cc(OC)c1OC (stereo not given) | > 100 µM |
| Cc1c2c(ccc3ccccc32)c[n+]2ccccc12 | 37.8 µM |
| O=C(CN(c1ccc(S(=O)(=O)O)cc1)c1ccc(S(=O)(=O)O)cc1)Nn1cnc2ccc(S(=O)(=O)N(c3ccc(S(=O)(=O)O)cc3)c3ccc(S(=O)(=O)O)cc3)cc2c1=O | > 100 µM |
| O=C(NNC(=S)NCc1ccccc1)C12CC3CC(CC(C3)C1)C2 | > 100 µM |

Fill in reported TGI for this entry: C=C1C(=O)OC2CC3(C)CCCC(C)C3=CC12 (stereo not given) 6.61 µM

Fill in reported TGI for this entry: CC1OC(O[C@H]2CC[C@]3(C=O)[C@H]4CC[C@]5(C)[C@H](C6=CC(=O)OC6)CC[C@]5(O)[C@@H]4C=C[C@]3(O)C2)CC(O)C1O (stereo not given in full) 9.01 µM

Fill in reported TGI for this entry: COc1cc(CC(C(=O)O)C(=O)O)c(OC)cc1CC(C(=O)O)C(=O)O > 100 µM

Fill in reported TGI for this entry: CCOC(=O)C1SC(=Nc2ccc(Cl)cc2C)N=C1C (stereo not given) 51.3 µM

Fill in reported TGI for this entry: COC(=O)C(C(=O)C(=O)Nc1ccc(OC)cc1[N+](=O)[O-])c1nc2cc(C)c(C)cc2[nH]c1=O (stereo not given) > 100 µM

====

Test system: OVCAR-8 ovarian
Test: NCI tumour cell line growth inhibition, 48 h
Below, each of the compounds is paired with its reported TGI value.

Below are worked cases with known answers.
| COMPOUND | VAL |
| --- | --- |
| CCOC(=O)c1[nH]c2nc(SC)nc(Nc3ccccc3Cl)c2c1N | 36.5 µM |
| CC(O)CN1c2ccccc2Sc2ccc(Cl)cc21 (stereo not given) | > 10 µM |
| C=C1CCC2C3(C)COC(c4ccc(Cl)cc4)OC3CCC2(C)C1/C=C/C1=CCOC1=O (stereo not given) | > 100 µM |
| c1ccc(C2=Nc3cccc4cccc(c34)N2)cc1 | > 87 µM |
| CN(C)C(=O)C1CCN(Cc2c[nH]c3ccccc23)CC1 | > 100 µM |
| COC(=O)c1c(C(=O)OC)c2c3ccccc3n(C)c2c2c1c1ccccc1n2C | > 100 µM |
| CN1CCN(Cc2ccc(NC(=O)c3cncc(C#Cc4cnn5ccccc45)c3)cc2C(F)(F)F)CC1 | 4.68 µM |
| O=[N+]([O-])c1cccc2nc3ccccc3c(NCCCN3CCCCC3)c12 | 0.118 µM |

Fill in reported TGI for this entry: CC(C)(C)c1ccc(O)c(CN(Cc2cc(C(C)(C)C)ccc2O)C2CCCCC2)c1 42 µM

Fill in reported TGI for this entry: CCOc1c(C#N)c2c(N)ncnc2n1C1OC(CO)C(O)C1O (stereo not given) > 100 µM
